B1: Pistol ribozyme (parent)
chain: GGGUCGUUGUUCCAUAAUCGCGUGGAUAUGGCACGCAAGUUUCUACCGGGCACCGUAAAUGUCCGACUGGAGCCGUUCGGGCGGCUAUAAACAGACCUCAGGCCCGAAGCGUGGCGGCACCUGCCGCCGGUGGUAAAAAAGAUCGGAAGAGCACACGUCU

- Variants of: B1
- ASSAY_INFO: aptazyme ON/OFF ratio, guanine; higher = stronger switching; co-transcriptional cleavage with and without guanine
VALUE_TYPE: aptazyme ON/OFF ratio

1) U7A U8A G9C U10G U11C C12G C13A	1.36
2) U8G G9U U10A U11G	1.16
3) U7C U8C U10G U11A C12A C13U	1.25
4) U7A G9C U10G U11G C12U C13A	1.09
5) U8G G9A U10G U11A C13G	1.21
6) U8G U10A U11C C12G C13A	1.13
7) U8A G9A U10C U11G C12G	1.38
8) U7G G9U U10C U11C C13U	1.09
9) U7C G9C U10A C12U C13A	1.08
10) U8G G9C U10G U11A C12A	1.17
11) U7G U8G G9A U10A U11A C12A	1.19
12) U7G U8A G9C U10G C12U C13G	1.03
13) U7C G9U U11G C12A C13G	1.1
14) U7G U8C G9U C12U C13G	1.16
15) U7A U8A G9U U10C U11C C12A C13A	1.04
16) U7A G9C U10C U11C C12U	1.04
17) U8G G9U U10A U11A C12A C13A	1.15
18) U7G U8G G9A U11C C12U	1.65
19) U7G U8G G9A U10A U11C C12A	1.21
20) U7C U8A G9A U10G U11G C12G C13U	1.2
21) U7A G9U U10G U11A C12U	1.06
22) U7C U8A U10A C12A	1.3
23) U7G U8G G9A U10A U11C C12A C13U	1.09
24) U8C G9A C13A	1.22
25) U7C U8G U10A U11A C13U	1.29
26) U8G U10G U11C C12G	1.11
27) U7C U10G U11G C12A C13G	1.16
28) U7A U8C U10G C12U C13A	1.21
29) U7C U8C G9C U10G U11G C12G C13A	1.11
30) U7C G9U U10G U11C C12U C13U	1.19
31) U7A G9U U10C U11C C13G	1.04
32) U7C U8A G9U C12U C13A	1.09
33) U8C G9A U10A C12U C13U	1.33
34) U7A U10C C12U C13A	1.16
35) U7C U8C G9U U11G C12A C13U	1.14
36) U8C G9C U10C C12A C13A	1
37) U7C U8G G9U U10A U11C C12U	1.04
38) U7G U8A U11A	2.25
39) U7G G9A U11G C12G C13U	1.16
40) U7G U8C G9A U11A C12A C13U	1.11
41) U7G U8G G9A U10G U11C C12A C13G	1.15
42) U8A U10A U11C C13U	1.04
43) U7G U8G G9U C12U C13G	1.14
44) U7G U8G G9C U10C C12U	1.38
45) U8G G9A U10C C12A C13G	1.09
46) U7A G9U U11C	1.15

These entries and their values trace back to the RNAGym collection of RNA variant scans (doi:10.1021/acssynbio.7b00057).
